- Experiment Description: Exposure in colon tissue and colon contents in TNBS studies
- Type: in vivo, rat
- Recorded Conditions: male, Sprague-Dawley, rat, colon content, po, 0.3 mg/kg/day, TNBS rats, 0.3 mg/kg/day oral, Study 3; LC-MS/MS, LLOQ=2.6 nM; read-out: Colon content concentration
Attribute Measured: level at time molar (nM)
The response must be a number in nM with no trailing unit.

Ask: Which level at time molar is reported for this compound? CC(=O)NCCCC[C@@H]1NC(=O)[C@H](Cc2c[nH]c3c(C)cccc23)NC(=O)[C@H]([C@@H](C)O)NC(=O)[C@H](CC(N)=O)NC(=O)[C@@H](NC(C)=O)C(C)(C)SSC(C)(C)[C@@H](C(=O)N[C@@H](Cc2ccc(OCCN)cc2)C(=O)N[C@@H](Cc2ccc3ccccc3c2)C(=O)NC2(C(=O)N[C@@H](CCC(=O)O)C(=O)N[C@@H](CC(N)=O)C(=O)N[C@@H](Cc3cccnc3)C(=O)N(C)CC(N)=O)CCOCC2)NC1=O
Result: 1680

The reported measurements were obtained from paper PMC11289455.
